Reference source for all entries: the supplement of paper PMC6555819

Recorded measurements of PBM binding z-score, one per entry
test system: PPARa:RXRa (NR concentration 270 nM, RXRa partner concentration 90 nM); assay: PBM binding z-score (relative to random genomic background probes); higher = stronger binding; sequences stand for … in GC…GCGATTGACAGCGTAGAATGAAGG
# respond with the number and nothing more

Worked set:
Enquiry: Entry under review: CCCAGTTGGTCAGGAGGTCACACACCGGATATGA . Reported PBM binding z-score?
Return: 4.21

Enquiry: Entry under review: GGAACGAGGGCAAAGTTGATAGCCTCTGTCGACG . Reported PBM binding z-score?
Return: 3.93

Enquiry: Entry under review: CCAACTGGGCCACGAAAGGTCATTGATTCAGTGA . Reported PBM binding z-score?
Return: 4.75

Enquiry: Entry under review: TCTGCTCGGTCAGTTGGTCAGCTAACGAGCTGCC . Reported PBM binding z-score?
Return: -0.00259

Enquiry: Entry under review: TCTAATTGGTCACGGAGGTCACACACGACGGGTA . Reported PBM binding z-score?
Return: 4.35

Enquiry: Entry under review: CGTCCAAGGTCAGAGAGGTTAGTGAATGCCGAGT . Reported PBM binding z-score?
Return: 4.18

***
Enquiry: Entry under review: TCTCGGAGGACACGAAAGTTCAGAGCTCGACATC . Reported PBM binding z-score?
Return: 1.14

Enquiry: Entry under review: CCTAGTTGGTCAGCAGGTCACACACCGGATATGA . Reported PBM binding z-score?
Return: 2.85
